studyTarget: T1, recombinant human MASP1 active protease (amino acids 297-699, C-terminal His Tag) (human, UniProt P48740 297-699)
T1 sequence: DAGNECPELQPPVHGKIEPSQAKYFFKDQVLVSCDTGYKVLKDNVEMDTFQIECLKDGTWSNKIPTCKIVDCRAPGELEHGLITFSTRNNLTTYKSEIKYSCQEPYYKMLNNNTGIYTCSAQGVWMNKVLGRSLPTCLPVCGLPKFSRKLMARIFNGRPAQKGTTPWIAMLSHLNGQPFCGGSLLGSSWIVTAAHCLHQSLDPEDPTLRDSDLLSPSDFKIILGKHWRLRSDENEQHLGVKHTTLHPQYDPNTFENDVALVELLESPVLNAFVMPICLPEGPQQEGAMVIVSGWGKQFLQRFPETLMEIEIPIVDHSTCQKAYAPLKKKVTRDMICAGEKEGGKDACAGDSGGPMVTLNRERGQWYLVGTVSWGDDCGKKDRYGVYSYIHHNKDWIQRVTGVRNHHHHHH
protocolNotes: cell-based or functional assay
Bridge positions count the residues as written; N and C are the ends. Square brackets hold non-standard residues; d marks the D form. Primed or numbered codes have the meaning given here. Ends that are not written are not given here. * marks the point of attachment. Tranexamic″ = tranexamic acid, NC[C@H]1CC[C@@H](C(=O)*)CC1; Oic = O=C(O)[C@@H]1C[C@@H]2CCCC[C@@H]2N1; PEG8 = NCCOCCOCCOCCOCCOCCOCCOCCOCCC(=O)O; Morpholine(3S-CO) = O=C(O)[C@@H]1COCCN1; tBuAla = CC(C)(C)C[C@H](N)C(=O)O; Pen = CC(C)(S)[C@H](N)C(=O)O; β3hP = O=C(O)C[C@@H]1CCCN1; Sar = CNCC(=O)O
readoutKind: human MASP1 IC50 (nM)
Hi! Could you send only the number? It should be in nM, unit omitted.

Please review the following examples before continuing.
[Sar]ICSRSLP[Oic]I[Pen]IP[β3hP]-OH (disulfide 3-11; N-terminus assumed; SMILES CC[C@H](C)[C@H](NC(=O)CNC)C(=O)N[C@H]1CSSC(C)(C)[C@@H](C(=O)N[C@H](C(=O)N2CCC[C@H]2C(=O)N2CCC[C@H]2CC(=O)O)[C@@H](C)CC)NC(=O)[C@H]([C@@H](C)CC)NC(=O)[C@@H]2C[C@@H]3CCCC[C@@H]3N2C(=O)[C@@H]2CCCN2C(=O)[C@H](CC(C)C)NC(=O)[C@H](CO)NC(=O)[C@H](CCCNC(=N)N)NC(=O)[C@H](CO)NC1=O) [Example 455: ((N-Me)G)-IC+SRSLP-(Oic)-I-(Pen)+IP-(beta-homo-P)-OH] : 2.9
AICSRSLP[Oic]I[Pen]IPD-OH (disulfide 3-11; also: choline salt) [Example 432: AIC+SRSLP-(Oic)-I-(Pen)+IPD-OH (choline-salt)] : 2.7
GICSRSL[Morpholine(3S-CO)]PICIPD-OH (disulfide 3-11) [Example 357: GIC+SRSL-(Morpholine-3-carboxylic)-PIC+IPD-OH] : 31
{Tranexamic″}-ICSRS[tBuAla]PPI[Pen]IP-{PEG8-NH2} (disulfide 2-10; SMILES CC[C@H](C)[C@@H]1NC(=O)[C@@H]2CCCN2C(=O)[C@@H]2CCCN2C(=O)[C@H](CC(C)(C)C)NC(=O)[C@H](CO)NC(=O)[C@H](CCCNC(=N)N)NC(=O)[C@H](CO)NC(=O)[C@@H](NC(=O)[C@@H](NC(=O)[C@H]2CC[C@@H](CN)CC2)[C@@H](C)CC)CSSC(C)(C)[C@@H](C(=O)N[C@H](C(=O)N2CCC[C@H]2C(=O)NCCOCCOCCOCCOCCOCCOCCOCCOCCC(N)=O)[C@@H](C)CC)NC1=O) [Example 427: (Tranexamic)-IC+SRS-((tBu)A)-PPI-(Pen)+IP-(PEG8(28 atoms))-NH2] : 10

[Q] Look up human MASP1 IC50 for this binder: [Sar]I[Pen]SRS[tBuAla]PPICIP-NH2 (disulfide 3-11; N-terminus assumed; SMILES CC[C@H](C)[C@H](NC(=O)CNC)C(=O)N[C@@H]1C(=O)N[C@@H](CO)C(=O)N[C@@H](CCCNC(=N)N)C(=O)N[C@@H](CO)C(=O)N[C@@H](CC(C)(C)C)C(=O)N2CCC[C@H]2C(=O)N2CCC[C@H]2C(=O)N[C@@H]([C@@H](C)CC)C(=O)N[C@H](C(=O)N[C@H](C(=O)N2CCC[C@H]2C(N)=O)[C@@H](C)CC)CSSC1(C)C) [Example 310: ((N-Me)G)-I-(Pen)+SRS-((tBu)A)-PPI-C+IP-NH2]
[A] 20
